targetSystem: PI3Kβ (Homo sapiens (Human))
Sequence (P42338 whole entry, canonical isoform): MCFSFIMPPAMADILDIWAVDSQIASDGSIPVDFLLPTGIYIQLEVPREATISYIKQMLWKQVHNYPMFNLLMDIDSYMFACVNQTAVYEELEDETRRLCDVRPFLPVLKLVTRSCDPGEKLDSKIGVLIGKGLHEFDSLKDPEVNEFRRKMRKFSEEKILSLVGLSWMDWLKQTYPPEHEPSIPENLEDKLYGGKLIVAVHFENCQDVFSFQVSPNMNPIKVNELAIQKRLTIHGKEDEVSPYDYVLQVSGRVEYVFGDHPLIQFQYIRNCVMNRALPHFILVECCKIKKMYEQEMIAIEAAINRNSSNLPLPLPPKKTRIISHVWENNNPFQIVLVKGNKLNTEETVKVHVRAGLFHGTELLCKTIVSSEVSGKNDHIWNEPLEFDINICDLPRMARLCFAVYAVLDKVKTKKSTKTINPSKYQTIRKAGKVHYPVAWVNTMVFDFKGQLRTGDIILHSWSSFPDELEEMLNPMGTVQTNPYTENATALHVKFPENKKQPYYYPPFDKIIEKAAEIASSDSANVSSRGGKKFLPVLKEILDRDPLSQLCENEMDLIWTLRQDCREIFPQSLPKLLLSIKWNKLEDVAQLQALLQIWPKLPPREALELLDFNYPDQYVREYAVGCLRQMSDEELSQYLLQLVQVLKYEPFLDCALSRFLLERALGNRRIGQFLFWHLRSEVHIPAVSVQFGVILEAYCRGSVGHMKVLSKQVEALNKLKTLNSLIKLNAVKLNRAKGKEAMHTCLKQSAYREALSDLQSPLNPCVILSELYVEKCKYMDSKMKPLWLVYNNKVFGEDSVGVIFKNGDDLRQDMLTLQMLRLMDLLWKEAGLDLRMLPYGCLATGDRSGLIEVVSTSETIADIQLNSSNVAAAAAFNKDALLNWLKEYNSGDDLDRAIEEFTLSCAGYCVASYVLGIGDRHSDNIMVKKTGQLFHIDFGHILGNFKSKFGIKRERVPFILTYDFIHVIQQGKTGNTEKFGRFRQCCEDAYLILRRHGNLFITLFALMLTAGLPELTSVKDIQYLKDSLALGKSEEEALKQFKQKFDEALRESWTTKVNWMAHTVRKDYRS
Sequence (P27986 whole entry partner, canonical isoform): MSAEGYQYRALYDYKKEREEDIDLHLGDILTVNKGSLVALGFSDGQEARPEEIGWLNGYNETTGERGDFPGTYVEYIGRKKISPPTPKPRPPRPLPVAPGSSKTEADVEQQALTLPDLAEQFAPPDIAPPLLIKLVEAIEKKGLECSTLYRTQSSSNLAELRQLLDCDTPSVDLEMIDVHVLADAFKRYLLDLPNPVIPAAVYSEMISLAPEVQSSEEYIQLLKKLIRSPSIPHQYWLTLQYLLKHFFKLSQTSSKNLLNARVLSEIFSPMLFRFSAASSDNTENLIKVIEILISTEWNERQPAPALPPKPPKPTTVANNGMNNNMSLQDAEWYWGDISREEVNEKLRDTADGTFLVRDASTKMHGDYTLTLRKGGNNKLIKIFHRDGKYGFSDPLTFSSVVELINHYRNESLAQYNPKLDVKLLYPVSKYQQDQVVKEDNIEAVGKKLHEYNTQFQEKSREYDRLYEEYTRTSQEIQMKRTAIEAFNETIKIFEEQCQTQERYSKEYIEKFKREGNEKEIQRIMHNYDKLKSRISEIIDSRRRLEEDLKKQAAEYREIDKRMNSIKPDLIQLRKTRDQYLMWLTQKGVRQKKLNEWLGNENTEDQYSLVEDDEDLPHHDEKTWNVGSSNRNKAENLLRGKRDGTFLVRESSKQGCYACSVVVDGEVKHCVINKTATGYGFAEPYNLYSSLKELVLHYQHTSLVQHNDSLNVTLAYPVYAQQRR
experimentDescription: TR-FRET enzymatic assay of PI3K isoforms
pIC50: −log10 of the molar value.
assayEndpoint: pIC50

> print(dat)
                                   compound                  targetsystem  assayendpoint  measuredresult
1  C[C@H](Nc1nc(N)nc(N)c1C#N)c1nc2c(F)ccc(Cl)c2c(=O)n1C1[C@H]2CNC[C@@H]12 (some centres unmarked) [Compound 17]  PI3Kβ (Homo sapiens (Human))          pIC50            8.52
2  Cc1nc(N)nc(N[C@@H](C)c2nc3c(F)ccc(Cl)c3c(=O)n2C2[C@H]3CNC[C@@H]23)c1C#N (some centres unmarked) [Compound 16]  PI3Kβ (Homo sapiens (Human))          pIC50            8.70
